- procedure-details: Antagonism of the zolmitriptan-mediated response tested at 1 uM
- Assay type: functional
pEC50: −log10 of the molar value.
Reported pEC50 is given for each of the following molecules.
measured-parameter: pEC50

compound_smiles=COc1ccc(C(=O)Nc2ccc(-c3ccncc3)cc2)cc1CCCN(C)C measured_parameter=pEC50 meas_value=5.55
compound_smiles=CN(C)CCCc1cc(C(=O)Nc2ccc(-c3ccncc3)cc2)ccc1O measured_parameter=pEC50 meas_value=5.52
compound_smiles=COc1ccc(C(=O)Nc2ccc(-c3ccncc3)cc2)cc1C=CCN(C)C measured_parameter=pEC50 meas_value=5.48

====

- measurement-target: UniProt:P28222
- procedure-details: Binding affinity for 5-hydroxytryptamine 1B receptor in C6-glial transfected cell type using [3H]5-CT as radioligand
Listing of entries alongside the reported Ki.
measured-parameter: Ki (nM)

compound=COc1ccc(C(=O)Nc2ccc(-c3ccncc3)cc2)cc1C=CCN(C)C meas_value=19
compound=COc1ccc(C(=O)Nc2ccc(-c3ccncc3)cc2)cc1C#CCN(C)C meas_value=16.2
compound=COc1ccc(C(=O)Nc2ccc(-c3ccncc3)cc2)cc1/C=C/CN(C)C meas_value=13.6
compound=COc1ccc(C(=O)Nc2ccc(-c3ccncc3)cc2)cc1CCCN(C)C meas_value=70.1
compound="CN(C)CCCc1cc(C(=O)Nc2ccc(-c3ccncc3)cc2)ccc1O [GR-55562]" meas_value=12.1

====

- measurement-target: 5-hydroxytryptamine receptor 1B (Homo sapiens)
- procedure-details: Intrinsic activity for Antagonism of 5-hydroxytryptamine 1B receptor-mediated stimulation of [35S]GTP gamma S binding
- Format: functional
Activity values by entry
measured-parameter: Activity

compound=COc1ccc(C(=O)Nc2ccc(-c3ccncc3)cc2)cc1/C=C/CN(C)C measurement_target="5-hydroxytryptamine receptor 1B (Homo sapiens)" meas_value=23
compound="CN(C)CCCc1cc(C(=O)Nc2ccc(-c3ccncc3)cc2)ccc1O [GR-55562]" measurement_target="5-hydroxytryptamine receptor 1B (Homo sapiens)" meas_value=-3.7
compound=COc1ccc(C(=O)Nc2ccc(-c3ccncc3)cc2)cc1C=CCN(C)C measurement_target="5-hydroxytryptamine receptor 1B (Homo sapiens)" meas_value=2.3
compound=COc1ccc(C(=O)Nc2ccc(-c3ccncc3)cc2)cc1CCCN(C)C measurement_target="5-hydroxytryptamine receptor 1B (Homo sapiens)" meas_value=4
compound=COc1ccc(C(=O)Nc2ccc(-c3ccncc3)cc2)cc1C#CCN(C)C measurement_target="5-hydroxytryptamine receptor 1B (Homo sapiens)" meas_value=32.3

====

- measurement-target: 5-hydroxytryptamine receptor 1B (Homo sapiens, UniProt P28222)
- Sequence (P28222 whole entry): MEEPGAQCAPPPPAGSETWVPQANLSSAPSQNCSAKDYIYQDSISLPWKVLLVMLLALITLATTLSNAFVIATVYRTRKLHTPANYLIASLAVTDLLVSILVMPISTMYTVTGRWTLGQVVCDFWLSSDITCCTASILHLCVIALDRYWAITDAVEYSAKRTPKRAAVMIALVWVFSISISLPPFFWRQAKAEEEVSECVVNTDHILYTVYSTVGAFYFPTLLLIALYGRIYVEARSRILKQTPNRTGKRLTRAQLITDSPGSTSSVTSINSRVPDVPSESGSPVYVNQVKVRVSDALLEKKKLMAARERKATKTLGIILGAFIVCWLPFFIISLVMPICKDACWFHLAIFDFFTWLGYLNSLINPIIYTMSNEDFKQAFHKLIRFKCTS
- procedure-details: Binding affinity for 5-hydroxytryptamine 1B receptor in C6-glial transfected cell type using [3H]GR-125743 as radioligand
measured-parameter: Ki (nM)

compound_smiles=COc1ccc(C(=O)Nc2ccc(-c3ccncc3)cc2)cc1/C=C/CN(C)C meas_value=18.8
compound_smiles=COc1ccc(C(=O)Nc2ccc(-c3ccncc3)cc2)cc1CCCN(C)C meas_value=15.4
compound_smiles=CN(C)CCCc1cc(C(=O)Nc2ccc(-c3ccncc3)cc2)ccc1O meas_value=14
compound_smiles=COc1ccc(C(=O)Nc2ccc(-c3ccncc3)cc2)cc1C#CCN(C)C meas_value=22.3
compound_smiles=COc1ccc(C(=O)Nc2ccc(-c3ccncc3)cc2)cc1C=CCN(C)C meas_value=6.1

====

- measurement-target: 5-hydroxytryptamine receptor 1A (Homo sapiens, UniProt P08908)
- Sequence (P08908 whole entry): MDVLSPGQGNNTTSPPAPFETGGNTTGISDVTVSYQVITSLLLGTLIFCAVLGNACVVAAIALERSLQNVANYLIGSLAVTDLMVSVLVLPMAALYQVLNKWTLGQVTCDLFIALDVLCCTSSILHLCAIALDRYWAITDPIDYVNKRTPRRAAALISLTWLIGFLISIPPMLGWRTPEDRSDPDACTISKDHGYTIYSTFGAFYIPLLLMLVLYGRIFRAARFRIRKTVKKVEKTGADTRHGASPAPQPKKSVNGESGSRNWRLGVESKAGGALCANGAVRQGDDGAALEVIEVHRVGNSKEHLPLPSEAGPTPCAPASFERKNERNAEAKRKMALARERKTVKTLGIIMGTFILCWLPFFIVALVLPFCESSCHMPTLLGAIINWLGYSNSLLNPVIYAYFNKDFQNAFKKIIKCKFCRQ
- procedure-details: Binding affinity for 5-hydroxytryptamine 1A receptor in HeLa transfected cell type using [3H]8-OH-DPAT as radioligand
pKi: −log10 of the molar value.
measured-parameter: pKi

compound_smiles=COc1ccc(C(=O)Nc2ccc(-c3ccncc3)cc2)cc1/C=C/CN(C)C meas_value="< 6.00"
compound_smiles=COc1ccc(C(=O)Nc2ccc(-c3ccncc3)cc2)cc1C#CCN(C)C meas_value="< 6.00"
compound_smiles=COc1ccc(C(=O)Nc2ccc(-c3ccncc3)cc2)cc1CCCN(C)C meas_value="< 6.00"
